Tested on: production of CD69 by B lymphocytes in human whole blood activated with goat F(ab')2 anti-human IgM
Test: CD69 Whole Blood Assay (CD69 Hu Blood FACS)
Format: cell-based
Details: anti-IgM stimulated, 20 hour incubation, CD69+ of CD20+ cells, Table 2
Entries and their CD69 Hu Blood FACS IC70

- test smiles: "O=C1c2cc3n(c2CCN1c1cc(F)cc(-c2nc(Nc4ccc(N5CCN(C6COC6)CC5)cc4)c4nc[nH]c4n2)c1CO)CCCC3"
  CD69 Hu Blood FACS IC70 / nM: 1900
- test smiles: "O=C1c2sc3c(c2CCN1c1cc(F)cc(-c2nc(Nc4ccc(N5CCN(C6COC6)CC5)cc4)c4nc[nH]c4n2)c1CO)CCCC3"
  CD69 Hu Blood FACS IC70 / nM: 727
- test smiles: "O=C1c2cc3c(n2CCN1c1nccc(-c2cc(Nc4ccc(N5CCN(C6COC6)CC5)cn4)c4nc[nH]c4c2)c1CO)CCCC3"
  CD69 Hu Blood FACS IC70 / nM: 4300

----------
System: production of CD69 by B lymphocytes in human whole blood activated with goat F(ab')2 anti-human IgM
Assay: CD69 Whole Blood Assay (CD69 Hu Blood FACS)
Assay type: cell-based
Details: anti-IgM stimulated, 20 hour incubation, CD69+ of CD20+ cells, Table 2

- compound: "CN1CCn2nc(Nc3cc(-c4ccnc(N5CCn6c(cc7c6CCCC7)C5=O)c4CO)nn4ccnc34)cc2C1 [Compound 124]"
  CD69 Hu Blood FACS IC70, nM: 333
- compound: "CC1(C)Cc2cc3n(c2C1)CCN(c1cc(F)cc(-c2nc(Nc4ccc(N5CCN(C6COC6)CC5)cc4)c4nc[nH]c4n2)c1CO)C3=O [Compound 123]"
  CD69 Hu Blood FACS IC70, nM: 256
- compound: "O=C1c2cc3c(n2CCN1c1nccc(-c2cc(Nc4ccc(N5CCN(C6COC6)CC5)cn4)c4nccn4c2)c1CO)CCCC3 [Compound 121]"
  CD69 Hu Blood FACS IC70, nM: 279
- compound: "O=C1c2cc3c(n2CCN1c1cc(F)cc(-c2nc(Nc4ccc(N5CCN(C6COC6)CC5)cc4)c4nc[nH]c4n2)c1CO)CCCC3 [Compound 117]"
  CD69 Hu Blood FACS IC70, nM: 812
- compound: "O=C1c2cc3c(n2CCN1c1cc(F)cc(-c2cc(Nc4ccc(N5CCN(C6COC6)CC5)cn4)c4nc[nH]c4c2)c1CO)CCCC3 [Compound 116]"
  CD69 Hu Blood FACS IC70, nM: 1300
- compound: "O=C1c2cc3c(n2CCN1c1nccc(-c2cc(Nc4ccc(N5CCN(C6COC6)CC5)cn4)c4ncnn4c2)c1CO)CCCC3 [Compound 122]"
  CD69 Hu Blood FACS IC70, nM: 208
